Target: PSMA (Homo sapiens, UniProt Q04609)
Sequence (Q04609 whole entry): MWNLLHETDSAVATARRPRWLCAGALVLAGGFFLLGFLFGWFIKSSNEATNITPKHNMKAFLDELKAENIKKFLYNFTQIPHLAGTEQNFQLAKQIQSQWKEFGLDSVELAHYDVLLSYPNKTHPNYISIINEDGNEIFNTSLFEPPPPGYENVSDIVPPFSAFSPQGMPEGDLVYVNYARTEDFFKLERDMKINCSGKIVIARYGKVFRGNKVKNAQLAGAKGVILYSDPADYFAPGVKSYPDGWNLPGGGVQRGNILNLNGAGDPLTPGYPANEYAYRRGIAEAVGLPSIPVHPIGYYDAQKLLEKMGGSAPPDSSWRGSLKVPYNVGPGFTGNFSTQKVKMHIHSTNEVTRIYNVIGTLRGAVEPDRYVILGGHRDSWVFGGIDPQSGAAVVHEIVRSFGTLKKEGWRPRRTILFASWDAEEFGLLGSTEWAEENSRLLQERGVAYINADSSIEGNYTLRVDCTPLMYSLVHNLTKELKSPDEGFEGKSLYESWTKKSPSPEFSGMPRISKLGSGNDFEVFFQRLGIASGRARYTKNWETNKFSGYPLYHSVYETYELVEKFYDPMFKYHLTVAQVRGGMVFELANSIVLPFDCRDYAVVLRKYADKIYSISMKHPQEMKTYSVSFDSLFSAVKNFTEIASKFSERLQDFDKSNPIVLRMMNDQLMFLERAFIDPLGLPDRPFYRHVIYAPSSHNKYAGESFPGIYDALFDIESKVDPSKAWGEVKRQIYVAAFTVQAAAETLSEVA
Test: Internalization of radiolabeled PSMA inhibitors into cells (PMPA blockade)
Format: cell-based
Parameters: endogenous in cells; LNCaP is named only for the xenografts
Settings: 177Lu-labeled inhibitors, 37°C; reference basis of the % not stated
Square brackets hold non-standard residues; d marks the D form. Peptide text beside a SMILES is read from it. * marks the point of attachment. X1 = O=C(O)CC[C@H](NC(=O)N[C@@H](CCCCNC(=O)CCCCCCC(=O)*)C(=O)O)C(=O)O; DOTAGA = O=C(O)CN1CCN(CC(=O)O)CCN(C(CCC(=O)*)C(=O)O)CCN(CC(=O)O)CC1; dPhe(4-NH2) = Nc1ccc(C[C@@H](N)C(=O)O)cc1; dTyr(3-I) = N[C@H](Cc1ccc(O)c(I)c1)C(=O)O; Phe(4-NH2) = Nc1ccc(C[C@H](N)C(=O)O)cc1; d2Nal = N[C@H](Cc1ccc2ccccc2c1)C(=O)O
observable: Internalization [%] (%)
// units = %; emit number, no label

Reference set (5 entries):
Quick one: Internalization [%] for Nc1ccc(C[C@H](NC(=O)CCC(C(=O)O)N2CCN(CC(=O)O)CCN(CC(=O)O)CCN(CC(=O)O)CC2)C(=O)N[C@H](Cc2ccc(O)c(I)c2)C(=O)N[C@H](Cc2ccccc2)C(=O)N[C@H](CCCCNC(=O)CCCCCCC(=O)NCCCC[C@H](NC(=O)N[C@@H](CCC(=O)O)C(=O)O)C(=O)O)C(=O)O)cc1 (stereo partly drawn) [[^nat/177Lu]PSMA-3, DOTAGA-(4-NH2)F-(l-y)-f-k-KuE, metal not drawn] ({DOTAGA}-[Phe(4-NH2)][dTyr(3-I)][dF][dK](X1)-OH) ?
166.92

Can you handle O=C(O)CC[C@H](NC(=O)N[C@@H](CCC(=O)N[C@H](CCCNC(=O)CCC(=O)NCCCC[C@@H](NC(=O)[C@@H](Cc1ccc2ccccc2c1)NC(=O)[C@@H](Cc1ccc(O)cc1)NC(=O)CCC(C(=O)O)N1CCN(CC(=O)O)CCN(CC(=O)O)CCN(CC(=O)O)CC1)C(=O)O)C(=O)O)C(=O)O)C(=O)O (stereo partly drawn) [[^nat/177Lu]PSMA-7, DOTAGA-y-nal-k(Suc-(HO-δ-orn-γ-EuE))-OH, metal not drawn, reference compound] next?
216.2

Can you handle O=C(O)CC[C@H](NC(=O)N[C@@H](CCCCNC(=O)CCCCCCC(=O)NCCCC[C@@H](NC(=O)[C@@H](Cc1ccc2ccccc2c1)NC(=O)[C@@H](Cc1ccc(O)cc1)NC(=O)CCC(C(=O)O)N1CCN(CC(=O)O)CCN(CC(=O)O)CCN(CC(=O)O)CC1)C(=O)O)C(=O)O)C(=O)O (stereo partly drawn) [[^nat/177Lu]PSMA-4, DOTAGA-y-nal-k-KuE, metal not drawn, reference compound] next?
71.7

Can you handle Nc1ccc(C[C@H](NC(=O)CCC(C(=O)O)N2CCN(CC(=O)O)CCN(CC(=O)O)CCN(CC(=O)O)CC2)C(=O)N[C@H](Cc2ccc(O)cc2)C(=O)N[C@H](Cc2ccc3ccccc3c2)C(=O)N[C@H](CCCCNC(=O)CCCCCCC(=O)NCCCC[C@H](NC(=O)N[C@@H](CCC(=O)O)C(=O)O)C(=O)O)C(=O)O)cc1 (stereo partly drawn) [[^nat/177Lu]PSMA-6, DOTAGA-(4-NH2)F-y-nal-k-KuE, metal not drawn] ({DOTAGA}-[Phe(4-NH2)][dY][d2Nal][dK](X1)-OH) next?
108.8

Can you handle Nc1ccc(C[C@@H](NC(=O)CCC(C(=O)O)N2CCN(CC(=O)O)CCN(CC(=O)O)CCN(CC(=O)O)CC2)C(=O)N[C@H](Cc2ccc(O)c(I)c2)C(=O)N[C@H](Cc2ccccc2)C(=O)N[C@H](CCCCNC(=O)CCCCCCC(=O)NCCCC[C@H](NC(=O)N[C@@H](CCC(=O)O)C(=O)O)C(=O)O)C(=O)O)cc1 (stereo partly drawn) [[^nat/177Lu]PSMA-2, DOTAGA-(4-NH2)f-(l-y)-f-k-KuE, metal not drawn] ({DOTAGA}-[dPhe(4-NH2)][dTyr(3-I)][dF][dK](X1)-OH) next?
122.15

Turning now to a further molecule:
Quick one: Internalization [%] for Nc1ccc(C[C@@H](NC(=O)CCC(C(=O)O)N2CCN(CC(=O)O)CCN(CC(=O)O)CCN(CC(=O)O)CC2)C(=O)N[C@H](Cc2ccc(O)cc2)C(=O)N[C@H](Cc2ccc3ccccc3c2)C(=O)N[C@H](CCCCNC(=O)CCCCCCC(=O)NCCCC[C@H](NC(=O)N[C@@H](CCC(=O)O)C(=O)O)C(=O)O)C(=O)O)cc1 (stereo partly drawn) [[^nat/177Lu]PSMA-5, DOTAGA-(4-NH2)f-y-nal-k-KuE, metal not drawn] ({DOTAGA}-[dPhe(4-NH2)][dY][d2Nal][dK](X1)-OH) ?
111.3

From: patent EP3494999A1
